Tested on: K-562 leukemia
Test name: NCI-60 one-dose screen, 48 h
Applied conditions: 10 µM unless noted
Compounds without any hit were thinned out: in the full panel of roughly 83,000, 20% have a hit. The source made the active and inactive calls. Rule for the calls: active = growth percent below 10; inactive = the rest.
Hello, when you answer, please use one of the following outcomes: TRUE (active), FALSE (inactive)

# Compound, Group
data = [
    ("O=C(Cn1ccc2ccccc21)Nc1ccc(-c2nc3ccccc3s2)cc1", "FALSE"),
]

Lab log entry: "Cc1nc(Nc2n[nH]c3c2CN(C(=O)N[C@H](CN(C)C)c2ccccc2)C3(C)C)c2sccc2n1" — outcome as called in the assay?
TRUE

Lab log entry: "NC1=Nc2cc(OCCCN3Cc4ccccc4C3)c(OCC3CC3)cc2C12CCCC2" — outcome as called in the assay?
TRUE

Lab log entry: "COCC(=O)NC/C=C/c1ccc2ncnc(Nc3ccc(Oc4ccc(C)nc4)c(C)c3)c2c1" — outcome as called in the assay?
FALSE

Lab log entry: "CN(c1ncccc1CNc1nc(Nc2ccc3c(c2)CC(=O)N3)ncc1C(F)(F)F)S(C)(=O)=O" — outcome as called in the assay?
TRUE

Lab log entry: "O=C(N/N=C/c1ccc(Cl)cc1)c1cc(-c2cc3ccccc3o2)nn1-c1ccccc1" — outcome as called in the assay?
FALSE

Lab log entry: "Nc1c(C(=O)c2ccccc2)sc2nc(-c3cccs3)cc(-c3cccs3)c12" — outcome as called in the assay?
FALSE

###

growth by entry:
Test system: OVCAR-8 ovarian
Test name: NCI-60 one-dose screen, 48 h (100 = growth as untreated, 0 = no growth, -100 = all killed)
Applied conditions: 10 µM unless noted
Compounds without any hit were thinned out: in the full panel of roughly 83,000, 20% have a hit.
Expressed in %, but write only the number.

# count of solved cases: 2
# Molecule, Observed
data = [
    ("C=CC(=O)N1CCC(Oc2cc3c(Nc4ccc(Cl)c(Cl)c4F)ncnc3cc2OC)CC1", 18.4),
    ("CCCNC(=O)c1cn2ncnc(Nc3cc(C(=O)NC4CC4)ccc3C)c2c1C", 77.8),
]

Param readout= growth; system= OVCAR-8 ovarian; entry= CC1(C)NC(=O)c2[nH]c3c(Cl)c(Cl)ccc3c2C1C#N (stereo not drawn) ; returns value.
89.2

Param readout= growth; system= OVCAR-8 ovarian; entry= "c1cn2cc(-c3ccc4cn[nH]c4c3)nc(Nc3ccc(N4CCOCC4)cc3)c2n1" ; returns value.
20

###

growth by entry:
Test system: MCF7 breast
Test name: NCI-60 one-dose screen, 48 h (100 = growth as untreated, 0 = no growth, -100 = all killed)
Applied conditions: 10 µM unless noted
Protocol: Growth inhibition of the MCF7 human tumor cell line is measured as a screen for anti-cancer activity. Cells are grown in 96 well plates and exposed to the test compound for 48 hours. Compounds are tested at a single concentration, which is 10^-5 M for most compounds. The reported endpoint is percent growth (GI% or GIPRCNT), where numbers from 0 - 100% represent growth inhibition, and numbers from -100% - 0 represent cell death. For example, a value of 40 represents 60% growth inhibition. […]
Compounds without any hit were thinned out: in the full panel of roughly 83,000, 20% have a hit. Active and inactive are the calls of the source. The calls were made as follows: active = growth percent below 10; inactive = the rest.

# count of solved cases: 2
# Molecule, Outcome measure, Observed
rows = [
    ("CCc1cc2c(c3ccc(C(=O)CBr)cc13)CCCC2", "growth", "93.1% (inactive)"),
    ("CCc1cnn2c(NCc3ccc[n+]([O-])c3)cc(N3CCCC[C@H]3CCO)nc12", "growth", "1.85% (active)"),
]

Param readout= growth; system= MCF7 breast; entry= "CNC(=O)c1cc(Oc2cccc3nc(Nc4ccc(Cl)c(F)c4)ccc23)ccn1" ; returns value.
76.2% (inactive)

Param readout= growth; system= MCF7 breast; entry= "Cc1cnc(Nc2ccc(OCCN3CCCC3)cc2)nc1Nc1cccc(S(=O)(=O)NC(C)(C)C)c1" ; returns value.
0.924% (active)

Param readout= growth; system= MCF7 breast; entry= "CCN1CCN(Cc2ccc(NC(=O)Nc3nc(-c4cc(OC)c(OC)c(OC)c4)cs3)cc2C(F)(F)F)CC1" ; returns value.
-15.2% (active)

Param readout= growth; system= MCF7 breast; entry= "O=C(COc1cccc(/C=C2\Cc3ccc(Cl)cc3C2=O)c1)Nc1nccs1" ; returns value.
35.1% (inactive)

Param readout= growth; system= MCF7 breast; entry= "CC(C)Nc1cc(-c2c[nH]c(C(=O)N[C@H](CO)c3cccc(Cl)c3)c2)c(Cl)cn1" ; returns value.
27.9% (inactive)

Param readout= growth; system= MCF7 breast; entry= "Cc1cccc(Cl)c1NC(=O)c1cnc(Nc2cc(N3CCOCC3)cc(S(C)(=O)=O)c2)s1" ; returns value.
65% (inactive)

Param readout= growth; system= MCF7 breast; entry= "Cc1ccccc1Nc1nc2nonc2nc1Nc1cccc(C)c1C" ; returns value.
43.3% (inactive)

Param readout= growth; system= MCF7 breast; entry= "NC(=O)c1c(OCc2c(F)cc(Br)cc2F)nsc1NC(=O)NCCCCN1CCCC1" ; returns value.
1.88% (active)

Param readout= growth; system= MCF7 breast; entry= "C=CCN1C(=O)c2cccc3c(-c4ccc5c(c4)ncn5C4CCCCC4)ccc(c23)C1=O" ; returns value.
37.6% (inactive)
